Data provenance is patent US12637469B2.

# IC50 values compiled below
target: VEGFR2 kinase (KDR enzyme) (Homo sapiens, UniProt P35968); assay: In vitro inhibitory effect on VEGFR2 kinase (ADP-Glo enzymatic experiment); type: biochemical; details: read-out: IC50 (nM) for inhibition of VEFGR2 enzyme
Sequence (P35968 20-1356, species assumed): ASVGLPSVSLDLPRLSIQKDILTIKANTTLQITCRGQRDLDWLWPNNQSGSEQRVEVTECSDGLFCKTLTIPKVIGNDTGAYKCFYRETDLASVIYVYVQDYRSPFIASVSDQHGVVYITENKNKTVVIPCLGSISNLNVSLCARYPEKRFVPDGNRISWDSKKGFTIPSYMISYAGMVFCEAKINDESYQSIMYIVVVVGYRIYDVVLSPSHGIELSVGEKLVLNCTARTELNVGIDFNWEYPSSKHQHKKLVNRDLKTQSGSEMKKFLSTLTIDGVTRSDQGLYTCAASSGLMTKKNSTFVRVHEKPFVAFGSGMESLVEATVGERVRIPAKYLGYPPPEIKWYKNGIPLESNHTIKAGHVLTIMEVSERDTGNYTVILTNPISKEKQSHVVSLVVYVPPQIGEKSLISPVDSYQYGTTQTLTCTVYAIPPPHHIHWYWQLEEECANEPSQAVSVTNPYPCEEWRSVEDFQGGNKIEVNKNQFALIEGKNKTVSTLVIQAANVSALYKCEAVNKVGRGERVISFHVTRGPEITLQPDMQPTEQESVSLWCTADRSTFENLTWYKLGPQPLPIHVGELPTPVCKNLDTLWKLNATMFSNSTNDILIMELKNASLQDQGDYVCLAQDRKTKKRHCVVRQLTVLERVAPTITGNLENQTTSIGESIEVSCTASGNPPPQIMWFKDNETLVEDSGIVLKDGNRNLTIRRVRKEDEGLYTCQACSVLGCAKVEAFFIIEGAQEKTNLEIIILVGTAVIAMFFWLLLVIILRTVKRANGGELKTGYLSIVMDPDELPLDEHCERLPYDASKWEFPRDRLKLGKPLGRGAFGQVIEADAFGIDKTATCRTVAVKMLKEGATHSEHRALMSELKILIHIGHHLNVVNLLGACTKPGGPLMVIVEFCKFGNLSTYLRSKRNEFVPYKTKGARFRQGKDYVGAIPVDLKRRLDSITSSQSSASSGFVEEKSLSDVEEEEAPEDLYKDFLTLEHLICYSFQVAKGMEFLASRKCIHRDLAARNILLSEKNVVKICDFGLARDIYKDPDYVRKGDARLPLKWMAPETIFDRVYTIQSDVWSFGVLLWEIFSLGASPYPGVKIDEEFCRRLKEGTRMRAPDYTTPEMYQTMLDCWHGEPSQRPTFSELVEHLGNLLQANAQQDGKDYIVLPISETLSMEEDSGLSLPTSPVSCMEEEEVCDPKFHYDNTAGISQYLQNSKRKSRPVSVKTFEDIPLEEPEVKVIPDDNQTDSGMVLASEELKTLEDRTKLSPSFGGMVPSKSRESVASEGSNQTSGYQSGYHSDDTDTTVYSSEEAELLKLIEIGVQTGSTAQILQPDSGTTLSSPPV

{"molecule": "c1cn2c(n1)c(Nc1ccc(N3CCOCC3)cc1)nc1ccc(-c3cc[nH]n3)cc12 [Compound 2]", "IC50 (nM)": 31}
{"molecule": "CN1CCCN(c2ccc(Nc3nc4ccc(-c5cn[nH]c5)cc4n4ccnc34)cc2)CC1 [Compound 7]", "IC50 (nM)": 42}
{"molecule": "c1cn2c(n1)c(Nc1ccc(N3CCN(C4COC4)CC3)cc1)nc1ccc(-c3cn[nH]c3)cc12 [Compound 5]", "IC50 (nM)": 19}
{"molecule": "c1cn2c(n1)c(Nc1ccc(N3CCC4(CC3)COC4)cc1)nc1ccc(-c3cn[nH]c3)cc12 [Compound 12]", "IC50 (nM)": 88}
{"molecule": "c1cn2c(n1)c(Nc1ccc(N3CCOCC3)cc1)nc1ccc(-c3cn[nH]c3)cc12 [Compound 1]", "IC50 (nM)": 23}
{"molecule": "c1cn2c(n1)c(Nc1ccc(C3CCOCC3)cc1)nc1ccc(-c3cn[nH]c3)cc12 [Compound 11]", "IC50 (nM)": 56}
{"molecule": "CC1(O)CCN(c2ccc(Nc3nc4ccc(-c5cn[nH]c5)cc4n4ccnc34)cc2)CC1 [Compound 8]", "IC50 (nM)": 31}
{"molecule": "N=S1(=O)CCN(c2ccc(Nc3nc4ccc(-c5cn[nH]c5)cc4n4ccnc34)cc2)CC1 [Compound 9]", "IC50 (nM)": 22}
{"molecule": "CC(=O)N=S1(=O)CCN(c2ccc(Nc3nc4ccc(-c5cn[nH]c5)cc4n4ccnc34)cc2)CC1 [Compound 10]", "IC50 (nM)": 41}
{"molecule": "CN1CCN(c2ccc(Nc3nc4ccc(-c5cn[nH]c5)cc4n4ccnc34)cc2)CC1 [Compound 6]", "IC50 (nM)": 44}

====

Molecular target: Hck(h)activated (Homo sapiens, UniProt P08631)
Construct: purchased Eurofins (KinaseProfiler service)
Sequence (P08631 whole entry): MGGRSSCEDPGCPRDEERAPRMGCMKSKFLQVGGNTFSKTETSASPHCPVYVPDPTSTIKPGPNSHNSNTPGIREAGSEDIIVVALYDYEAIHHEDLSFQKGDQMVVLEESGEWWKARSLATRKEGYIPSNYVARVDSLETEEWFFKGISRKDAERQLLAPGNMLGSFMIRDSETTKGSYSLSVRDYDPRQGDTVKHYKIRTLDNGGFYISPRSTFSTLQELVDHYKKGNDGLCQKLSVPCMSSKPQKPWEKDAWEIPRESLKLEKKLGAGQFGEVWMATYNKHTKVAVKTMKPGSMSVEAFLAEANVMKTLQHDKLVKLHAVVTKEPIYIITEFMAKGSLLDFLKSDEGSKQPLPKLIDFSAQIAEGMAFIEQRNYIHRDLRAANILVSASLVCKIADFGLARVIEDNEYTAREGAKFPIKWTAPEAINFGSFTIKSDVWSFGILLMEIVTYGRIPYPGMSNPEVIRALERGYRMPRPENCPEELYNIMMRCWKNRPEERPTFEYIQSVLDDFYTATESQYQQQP
Test: Eurofins KinaseProfiler off-target kinase inhibition
Type: biochemical
Method: In order to investigate the specificity of the inhibition of the target by the compound, in this study, the activity and selectivity of test compound 1 on the off-target kinases in related pathways were tested on the Eurofins kinaseProfiler™ platform, and compound screening and analysis were conducted using IC50 value as the indicator. Compound 1 was detected for each selected kinase using the standard Eurofins Kinase Profiler™ protocol, which followed the relevant standard operating procedures. […]
measurement kind: IC50 (nM)

{"chemical string": "c1cn2c(n1)c(Nc1ccc(N3CCOCC3)cc1)nc1ccc(-c3cn[nH]c3)cc12", "unit spec": "nM", "recorded value": 418}

====

biological target: c-kit(h) (Homo sapiens, UniProt P10721); construct: purchased Eurofins (KinaseProfiler platform); assay: Eurofins KinaseProfiler off-target kinase inhibition; format: biochemical
Sequence (P10721 26-976): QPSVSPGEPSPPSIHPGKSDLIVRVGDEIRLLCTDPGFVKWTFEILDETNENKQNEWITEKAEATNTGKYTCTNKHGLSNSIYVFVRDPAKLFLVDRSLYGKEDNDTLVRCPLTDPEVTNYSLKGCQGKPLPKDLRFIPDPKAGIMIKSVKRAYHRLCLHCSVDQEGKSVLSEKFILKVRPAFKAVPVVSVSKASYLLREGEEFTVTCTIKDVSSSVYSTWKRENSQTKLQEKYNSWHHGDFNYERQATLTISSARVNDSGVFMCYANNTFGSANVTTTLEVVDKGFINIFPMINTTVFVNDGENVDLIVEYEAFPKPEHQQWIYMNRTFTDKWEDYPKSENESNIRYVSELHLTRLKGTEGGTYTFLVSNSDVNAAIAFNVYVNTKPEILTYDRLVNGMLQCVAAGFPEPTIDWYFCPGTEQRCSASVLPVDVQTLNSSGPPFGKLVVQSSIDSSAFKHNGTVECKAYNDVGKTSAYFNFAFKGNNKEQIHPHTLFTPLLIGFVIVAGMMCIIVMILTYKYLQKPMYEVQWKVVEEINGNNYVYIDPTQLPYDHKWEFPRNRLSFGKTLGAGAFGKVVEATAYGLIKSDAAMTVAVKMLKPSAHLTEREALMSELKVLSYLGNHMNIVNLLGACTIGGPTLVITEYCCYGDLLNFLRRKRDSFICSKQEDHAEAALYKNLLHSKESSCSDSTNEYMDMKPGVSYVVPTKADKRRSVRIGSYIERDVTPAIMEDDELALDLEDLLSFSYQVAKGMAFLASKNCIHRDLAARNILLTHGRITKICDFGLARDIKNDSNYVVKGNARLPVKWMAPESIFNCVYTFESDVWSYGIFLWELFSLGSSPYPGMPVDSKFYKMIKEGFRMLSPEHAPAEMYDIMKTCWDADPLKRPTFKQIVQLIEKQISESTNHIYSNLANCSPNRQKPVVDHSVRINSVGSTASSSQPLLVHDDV
measurement kind: IC50 (nM)

{"chemical string": "c1cn2c(n1)c(Nc1ccc(N3CCOCC3)cc1)nc1ccc(-c3cn[nH]c3)cc12", "assayed target": "c-kit(h) (Homo sapiens, UniProt P10721)", "measurement kind": "IC50", "unit spec": "nM", "recorded value": 2840}

====

molecular target: MKK4(m) (Mus musculus, UniProt P47809); construct: purchased Eurofins (KinaseProfiler service); assay: Eurofins KinaseProfiler off-target kinase inhibition; type: biochemical
Sequence (P47809 whole entry): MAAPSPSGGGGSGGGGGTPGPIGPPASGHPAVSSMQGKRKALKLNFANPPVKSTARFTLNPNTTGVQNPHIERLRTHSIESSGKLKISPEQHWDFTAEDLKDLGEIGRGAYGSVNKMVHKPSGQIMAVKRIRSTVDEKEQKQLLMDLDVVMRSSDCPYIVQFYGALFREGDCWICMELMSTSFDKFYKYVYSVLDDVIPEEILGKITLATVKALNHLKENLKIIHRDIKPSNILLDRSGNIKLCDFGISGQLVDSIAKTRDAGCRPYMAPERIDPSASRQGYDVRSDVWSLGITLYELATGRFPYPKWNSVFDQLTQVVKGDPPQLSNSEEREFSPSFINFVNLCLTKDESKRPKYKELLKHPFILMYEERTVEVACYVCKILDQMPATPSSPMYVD

{"chemical string": "c1cn2c(n1)c(Nc1ccc(N3CCOCC3)cc1)nc1ccc(-c3cn[nH]c3)cc12", "IC50": "> 10000 nM"}
